# assayed system: human recombinant adrenergic β3 receptor (Homo sapiens)
# Construct: host or cells: CHO-K1
# protocol: Cyclic AMP accumulation assay (HTRF), agonist mode
# Format: cell-based
# run conditions: agonistic activity at β3-adrenoceptor, CHO-K1 β3 cells, cAMP
EC50 listing for selected molecules.

Example entries begin here.
[
  {
    "molecule": "CCOC(=O)c1cc(OCC(O)CNC2CCN(c3ncnc4ccsc34)CC2)ccc1O (centres unmarked) [Example 22]",
    "assayed system": "human recombinant adrenergic β3 receptor (Homo sapiens)",
    "data value": "> 100 nM"
  },
  {
    "molecule": "COC(=O)c1ccc(OCC(O)CNC2CCN(c3ncnc4scc(-c5ccccc5)c34)CC2)cc1O (centres unmarked) [Example 28]",
    "assayed system": "human recombinant adrenergic β3 receptor (Homo sapiens)",
    "data value": "> 100 nM"
  },
  {
    "molecule": "Cc1nc(N2CCC(NCC(O)COc3ccc(O)cc3)CC2)c2ccsc2n1 (centres unmarked) [Example 5]",
    "assayed system": "human recombinant adrenergic β3 receptor (Homo sapiens)",
    "data value": "11 to 100 nM"
  }
]

Moving on to the next molecule.
According to the records, this molecule Cc1nc(N2CCC(NCC(O)COc3cccc(CO)c3)CC2)c2ccsc2n1 (centres unmarked) [Example 38] displays EC50 of > 100 nM

---

# assayed system: human recombinant adrenergic β3 receptor (Homo sapiens, UniProt P13945)
# Sequence (P13945 whole entry): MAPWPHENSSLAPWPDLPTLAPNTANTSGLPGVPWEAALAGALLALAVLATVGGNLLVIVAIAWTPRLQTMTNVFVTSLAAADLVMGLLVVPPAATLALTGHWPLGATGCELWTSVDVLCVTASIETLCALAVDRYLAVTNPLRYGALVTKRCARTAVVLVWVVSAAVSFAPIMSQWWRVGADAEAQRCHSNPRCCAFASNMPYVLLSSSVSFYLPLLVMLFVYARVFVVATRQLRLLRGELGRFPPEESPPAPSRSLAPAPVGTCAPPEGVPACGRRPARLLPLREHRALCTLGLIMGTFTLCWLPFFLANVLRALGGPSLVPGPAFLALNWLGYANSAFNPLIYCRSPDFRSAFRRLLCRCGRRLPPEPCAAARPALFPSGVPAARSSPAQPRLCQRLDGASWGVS
# protocol: Cyclic AMP accumulation assay (HTRF), agonist mode
# run conditions: agonistic activity at β3-adrenoceptor, CHO-K1 β3 cells, cAMP
pEC50: −log10 of the molar value.
pEC50 listing for selected compounds.

Example entries begin here.
[
  {
    "compound": "CCOC(=O)c1cc(OCC(O)CNC2CCN(c3ncnc4sc(-c5ccccc5)c(C)c34)CC2)ccc1O (centres unmarked)",
    "pEC50": "< 7.00"
  },
  {
    "compound": "OCc1ccc(OCC(O)CNC2CCN(c3ncnc4scc(-c5ccc(F)cc5)c34)CC2)cc1 (centres unmarked)",
    "pEC50": "< 7.00"
  },
  {
    "compound": "CCOC(=O)c1cc(OCC(O)CNC2CCN(c3ncnc4scc(-c5cccs5)c34)CC2)ccc1O (centres unmarked)",
    "pEC50": "< 7.00"
  },
  {
    "compound": "CN(CC(O)COc1ccc(O)cc1)C1CCN(c2ncnc3scc(-c4ccc(F)cc4)c23)CC1 (centres unmarked)",
    "pEC50": "< 7.00"
  }
]

Noted pEC50 for Cc1nc(N2CCC(NCC(O)COc3ccc(O)c(CO)c3)CC2)c2ccsc2n1 (centres unmarked) , tested on human recombinant adrenergic β3 receptor (Homo sapiens, UniProt P13945): 8.00 to 9.00

Noted pEC50 for CN(CC(O)COc1cccc(CO)c1)C1CCN(c2ncnc3scc(-c4ccccc4)c23)CC1 (centres unmarked) , tested on human recombinant adrenergic β3 receptor (Homo sapiens, UniProt P13945): < 7.00

Noted pEC50 for Cc1c(-c2ccccc2)sc2ncnc(N3CCC(N(C)CC(O)COc4cccc(CO)c4)CC3)c12 (centres unmarked) , tested on human recombinant adrenergic β3 receptor (Homo sapiens, UniProt P13945): < 7.00

Noted pEC50 for CCOC(=O)c1cc(O)ccc1OCC(O)CNC1CCN(c2ncnc3scc(-c4ccccc4)c23)CC1 (centres unmarked) , tested on human recombinant adrenergic β3 receptor (Homo sapiens, UniProt P13945): 8.00 to 9.00

---

# assayed system: human recombinant adrenergic β3 receptor (Homo sapiens, UniProt P13945)
# protocol: Cyclic AMP accumulation assay (HTRF), agonist mode
# run conditions: agonistic activity at β3-adrenoceptor, CHO-K1 β3 cells, cAMP
measure name: EC50

Example entries begin here.
[
  {
    "compound": "OCc1cccc(OCC(O)CNC2CCN(c3ncnc4scc(-c5ccc(F)cc5)c34)CC2)c1 (centres unmarked)",
    "measure name": "EC50",
    "data value": "0.011 to 0.1 µM"
  },
  {
    "compound": "Cc1cc(C)nc(N2CCC(NCC(O)COc3ccc(O)cc3)CC2)n1 (centres unmarked)",
    "measure name": "EC50",
    "data value": "0.011 to 0.1 µM"
  },
  {
    "compound": "Cc1c(-c2ccccc2)sc2ncnc(N3CCC(NCC(O)COc4cccc(CO)c4)CC3)c12 (centres unmarked)",
    "measure name": "EC50",
    "data value": "> 0.1 µM"
  },
  {
    "compound": "Cc1cc(C)nc(N2CCC(NCC(O)COc3ccc(O)c(CO)c3)CC2)n1 (centres unmarked)",
    "measure name": "EC50",
    "data value": "0.001 to 0.01 µM"
  }
]

According to the records, this compound Cc1csc2ncnc(N3CCC(NCC(O)COc4cccc(CO)c4)CC3)c12 (centres unmarked) displays EC50 of 0.011 to 0.1 µM

---

# assayed system: human recombinant adrenergic β3 receptor (Homo sapiens, UniProt P13945)
# Construct: host or cells: CHO-K1
# protocol: Cyclic AMP accumulation assay (HTRF), agonist mode
# Type: cell-based
# run conditions: agonistic activity at β3-adrenoceptor, CHO-K1 β3 cells, cAMP
pEC50: −log10 of the molar value.
measure name: pEC50

[
  {
    "compound": "CCOC(=O)c1cc(OCC(O)CNC2CCN(c3ncnc4scc(-c5ccccc5)c34)CC2)ccc1O (stereo not shown)",
    "data value": "< 7.00"
  }
]

According to the records, this compound CCOC(=O)c1cc(OCC(O)CNC2CCN(c3ncnc4scc(C)c34)CC2)ccc1O (stereo not shown) displays pEC50 of < 7.00

According to the records, this compound OCc1cc(OCC(O)CNC2CCN(C3=NCNc4scc(-c5ccccc5)c43)CC2)ccc1O (stereo not shown) displays pEC50 of 9.00 to 11.00

According to the records, this compound COC(=O)c1ccc(O)cc1OCC(O)CNC1CCN(c2ncnc3scc(-c4ccccc4)c23)CC1 (stereo not shown) displays pEC50 of < 7.00
